Biological target: Nuclear factor erythroid 2-related factor 2 (Homo sapiens) (UniProt Q16236)
Sequence (Q16236 whole entry): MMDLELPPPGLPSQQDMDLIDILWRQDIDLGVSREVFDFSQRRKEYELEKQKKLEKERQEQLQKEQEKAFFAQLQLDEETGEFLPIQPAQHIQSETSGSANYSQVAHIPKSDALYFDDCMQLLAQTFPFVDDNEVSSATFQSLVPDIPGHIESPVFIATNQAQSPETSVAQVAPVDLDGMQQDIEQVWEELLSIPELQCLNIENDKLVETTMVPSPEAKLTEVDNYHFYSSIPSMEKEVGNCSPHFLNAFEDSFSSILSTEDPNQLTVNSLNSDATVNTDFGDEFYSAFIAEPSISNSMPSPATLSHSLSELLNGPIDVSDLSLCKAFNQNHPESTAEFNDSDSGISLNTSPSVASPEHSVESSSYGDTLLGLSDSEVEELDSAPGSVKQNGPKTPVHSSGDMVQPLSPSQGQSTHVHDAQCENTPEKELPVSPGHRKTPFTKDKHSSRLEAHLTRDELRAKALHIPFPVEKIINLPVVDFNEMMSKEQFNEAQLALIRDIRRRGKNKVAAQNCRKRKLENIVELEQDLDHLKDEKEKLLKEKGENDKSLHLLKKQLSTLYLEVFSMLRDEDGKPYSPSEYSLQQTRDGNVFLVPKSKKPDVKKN
Test: Activation of Nrf2 in human HepG2-ARE-C8 cells assessed as fold change at 80 uM measured after 12 hrs by luciferase reporter gene assay relative to control
Type: cell-based
READOUT_NAME: fold change (FC)

Example results:
1) O=[N+]([O-])c1ccc(-c2nnc(-c3ccc4nc[nH]c4c3)o2)cc1
33.8
2) COc1cccc(-c2nnc(-c3ccc4nc[nH]c4c3)o2)c1
7.5

[a] c1ccc(-c2nnc(-c3ccc4nc[nH]c4c3)o2)cc1
[b] Fc1ccc(-c2nnc(-c3ccc4nc[nH]c4c3)s2)cc1
Between a and b , whose recorded fold change (FC) is greater? Reply with the label of the item you choose.
a

[A] CC(C)(C)c1cc(O)ccc1O
[B] Fc1ccc(-c2nnc(-c3ccc4nc[nH]c4c3)o2)cc1
Would you mind telling me which has the lower recorded fold change (FC) between A and B ? Answer with the label corresponding to your selection.
A
(A: 4.73, B: 24.4)

###

Biological target: Nuclear factor erythroid 2-related factor 2 (Homo sapiens)
Experiment: Activation of Nrf2 in human HepG2-ARE-C8 cells assessed as fold change at 80 uM measured after 12 hrs by luciferase reporter gene assay relative to control
Type: cell-based
READOUT_NAME: fold change (FC)

1. N#Cc1ccc(-c2nnc(-c3ccc4nc[nH]c4c3)o2)cc1
2.83

[A] CCCCc1ccc(-c2nnc(-c3ccc4nc[nH]c4c3)s2)cc1
[B] Brc1ccc(-c2nnc(-c3ccc4nc[nH]c4c3)o2)cc1
I'd appreciate it if you could identify which of A and B has the greater fold change (FC). Identify your selection by its label.
B

[I] O=[N+]([O-])c1ccc(-c2nnc(-c3ccc4nc[nH]c4c3)s2)cc1
[II] c1ccc(-c2ccc(-c3nnc(-c4ccc5nc[nH]c5c4)o3)cc2)cc1
Between I and II , whose recorded fold change (FC) is greater? Pick one and reply with its label.
I
(I: 24.6, II: 9.1)
